Tested On: human NTCP (Homo sapiens)
Sequence (Q14973 whole entry): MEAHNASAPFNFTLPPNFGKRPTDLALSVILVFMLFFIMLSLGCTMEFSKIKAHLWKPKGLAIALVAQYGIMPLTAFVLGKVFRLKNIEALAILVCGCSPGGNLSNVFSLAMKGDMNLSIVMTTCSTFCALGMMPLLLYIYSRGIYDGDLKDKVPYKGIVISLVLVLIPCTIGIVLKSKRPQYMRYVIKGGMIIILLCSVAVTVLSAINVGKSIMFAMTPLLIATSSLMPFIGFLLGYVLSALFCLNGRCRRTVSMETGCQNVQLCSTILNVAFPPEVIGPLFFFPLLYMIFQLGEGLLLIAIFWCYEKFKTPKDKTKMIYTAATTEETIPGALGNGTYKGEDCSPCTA
Assay Notes: Screening taurocholate uptake assay (96-well, [14C]taurocholate, 10 µM drug)
Setup Conditions: screen, 10 µM drug, taurocholate uptake
Where a name gives a salt, the structure may show the parent alone.
Property Name: B-score functional assay
Quick one: just the number, no unit, thanks!

Examples with answers:
compound="O=C(O)Cc1sc(-c2ccccc2)nc1-c1ccc(Cl)cc1 [Fentiazac]" endpoint_value=-1.501
compound="CC(C)NCC(O)c1ccc2ccccc2c1.Cl (stereo not drawn) [Pronethalol hydrochloride]" endpoint_value=-0.999
compound="COc1ccc(CN(CCN(C)C)c2ccccn2)cc1 [Pyrilamine maleate]" endpoint_value=-0.86
compound="CC(N/C(=N\\C#N)Nc1ccncc1)C(C)(C)C (stereo not drawn) [Pinacidil]" endpoint_value=-0.832
compound="O=P(O)(O)C(Cl)(Cl)P(=O)(O)O [Clodronate]" endpoint_value=-0.468

QUERY: Return reported B-score functional assay; argument: C=CC[N@@+]12CC[C@@]34c5ccccc5N5/C=C6/[C@H]7C[C@H]8[C@@]9(CC[N@@+]8(CC=C)C/C7=C/CO)c7ccccc7N(/C=C(/[C@@H](C[C@@H]31)/C(=C\CO)C2)[C@H]54)[C@@H]69.[Cl-].[Cl-] [Alcuronium chloride]
RESULT: 1.096

QUERY: Quick one: B-score functional assay of COc1ccccc1N1CCN(CCCCNC(=O)c2ccc3ccccc3c2)CC1.Cl.Cl [DO 897/99] ?
RESULT: -0.485

QUERY: Using the record for CC=CC1=C(C(=O)O)N2C(=O)[C@@H](NC(=O)[C@H](N)c3ccc(O)cc3)[C@H]2SC1 [Cefprozil] , report its B-score functional assay.
RESULT: 0.201

QUERY: GET /values?readout=B-score functional assay&item= CCCCN(CCCC)CCC(O)c1cc2c(Cl)cc(Cl)cc2c2cc(C(F)(F)F)ccc12 (stereo not drawn) [Halofantrine hydrochloride]
RESULT: 0.058
